Tested on: female beagle dogs
assayProtocol: anti-fertility activity in pregnant female beagle dogs
Format: in vivo
measurementSetup: Canis lupus familiaris, sc; single subcutaneous dose on 20th day of pregnancy, opened on 35th day; read-out: Minimal effective doses (100% effectiveness, absence of live fetuses in 100% of the animals)
Source text: In performing experiments with dogs, female beagle dogs weighing approximately 10 kg. are mated and on the 20th day of pregnancy the animals are given single subcutaneous doses of the compounds that were active in both the rat and the hamster. On the 35th day of pregnancy, the animals are surgically opened and the uteri are examined for presence of fetuses, placental tissue etc. […]
Each entry below carries its reported minimal effective dose.
Please state the figure in mg/kg; there is no need to write the unit.

# count of solved cases: 3
molecule	numericValue
C=CCOc1cccc(-c2nc3n(n2)CCc2ccccc2-3)c1 [Example 24]	6.25
COc1cccc(-c2nc3n(n2)CCc2ccccc2-3)c1 [Example 1]	12.5
CCOc1cccc(-c2nc3n(n2)CCc2ccccc2-3)c1 [Example 13]	6.25

Inquiry: Which minimal effective dose is reported for this molecule? CCCOc1cccc(-c2nc3n(n2)CCc2ccccc2-3)c1 [Example 14]
Reply text: 6.25

====

assayProtocol: acute toxicity LD50 in mice
measurementSetup: mouse, in vivo, ip; i.p. in mice
assayReadout: LD50

Below: 5 compounds and their reported LD50.
compound	LD50
CC(=O)N(C(C)=O)c1nc2n(n1)CCc1ccccc1-2 [Example 34]	> 600 mg/kg
CC(=O)Nc1nc2n(n1)CCc1ccccc1-2 [Example 35]	> 400 mg/kg
Nc1nc2n(n1)CCc1ccccc1-2 [Example 32]	> 600 mg/kg
c1cncc(-c2nc3n(n2)CCc2ccccc2-3)c1 [Example 10]	> 400 mg/kg
N=C(NN1CCc2ccccc2C1=O)c1ccccc1	> 600 mg/kg

Inquiry: Requested field: LD50. Item: N=C(NN1CCc2ccccc2C1=O)c1cccc([N+](=O)[O-])c1
Reply text: > 600 mg/kg

Inquiry: What value of LD50 has been recorded for this entry: CCOC(=O)NC(=S)Nc1nc2n(n1)CCc1ccccc1-2
Reply text: > 600 mg/kg

====

Here, each record is paired with measured ED50 data.
System: female Syrian golden hamsters
assayProtocol: anti-fertility activity in pregnant female Syrian golden hamsters
Format: in vivo
measurementSetup: Mesocricetus auratus, sc; Table I, 5,6-dihydro compounds, hamsters; read-out: ED50 (dose showing 100% effectiveness in 50% of the treated animals)

Known ED50 results, listed for orientation:
compound	ED50
C#CCOc1cccc(-c2nc3n(n2)CCc2ccccc2-3)c1 [Example 25]	0.21 mg/kg
CCCOc1cccc(-c2nc3n(n2)CCc2ccccc2-3)c1 [Example 14]	0.11 mg/kg
Cc1ccc(-c2nc3n(n2)CCc2ccccc2-3)cc1 [Example 4, reference compound]	2 mg/kg
Fc1ccc(-c2nc3n(n2)CCc2ccccc2-3)cc1 [Example 28]	0.1 mg/kg
Cc1cccc(-c2nc3n(n2)CCc2ccccc2-3)c1 [Example 3, reference compound]	> 10 mg/kg
COc1cccc(-c2nc3n(n2)CCc2ccccc2-3)c1 [Example 1]	0.1 mg/kg
Cc1nc2n(n1)CCc1ccccc1-2 [Example 9, reference compound]	> 10 mg/kg
CCOc1cccc(-c2nc3n(n2)CCc2ccccc2-3)c1 [Example 13]	0.03 mg/kg
c1ccc(-c2nc3n(n2)CCc2ccccc2-3)cc1 [Example 5, reference compound]	1 mg/kg
Clc1cccc(-c2nc3n(n2)CCc2ccccc2-3)c1 [Example 7]	0.75 mg/kg

Inquiry: Which value of ED50 has been reported for Clc1ccc(-c2nc3n(n2)CCc2ccccc2-3)cc1 [Example 8] in the records?
Reply text: 0.065 mg/kg
